Test system: HC-1 human colon carcinoma xenograft
measurement_description: Antitumor activity against HC-1 human colon carcinoma xenografts in nude mice
Type: in vivo, human tumor in CD1 Nu/Nu mice
measurement_parameters: overall activity over all doses
measured_metric: Activity (overall)

>  <compound>
Nc1nc(N)c2ncn([C@@H]3O[C@H](CO)[C@@H](O)C3(F)F)c2n1 [ADDFA, 2-Amino-2'-deoxy-2',2'-difluoroadenosine, reference compound]

>  <result>
+++ (95-100% Inhibition)

$$$$
>  <compound>
COc1ccc(C(Nc2nc(N)nc3c2ncn3[C@@H]2O[C@H](CO)[C@@H](O)C2(F)F)(c2ccccc2)c2ccc(C(=O)NC(C)C)cc2)cc1 (stereo partly drawn) [MMT]

>  <result>
+++ (95-100% Inhibition)

$$$$

* * *

Test system: HC-1 human colon carcinoma xenograft
measurement_description: Antitumor activity against HC-1 human colon carcinoma xenografts in nude mice
Type: in vivo, human tumor in CD1 Nu/Nu mice
measurement_parameters: overall activity over all doses
measured_metric: Activity (overall)

>  <compound>
COc1ccc(C(Nc2nc(N)nc3c2ncn3[C@@H]2O[C@H](CO)[C@@H](O)C2(F)F)(c2ccc(OC)cc2)c2ccc(C(=O)NC(C)C)cc2)cc1

>  <tgt>
HC-1 human colon carcinoma xenograft

>  <measured_metric>
Activity (overall)

>  <result>
+++ (95-100% Inhibition)

$$$$
>  <compound>
COc1ccc(C(Nc2nc(N)nc3c2ncn3[C@@H]2O[C@H](CO)[C@@H](O)C2(F)F)(c2ccc(C)cc2)c2ccc(C(=O)NC(C)C)cc2)cc1 (stereo partly drawn)

>  <tgt>
HC-1 human colon carcinoma xenograft

>  <measured_metric>
Activity (overall)

>  <result>
+++ (95-100% Inhibition)

$$$$
